targetEntity: human recombinant Yes [a.a. 2–543 (end)] (Homo sapiens, UniProt P07947)
Construct: human recombinant Yes [a.a; 2–543 (end)]; purchased BPS Bioscience 40488
Sequence (P07947 2-543): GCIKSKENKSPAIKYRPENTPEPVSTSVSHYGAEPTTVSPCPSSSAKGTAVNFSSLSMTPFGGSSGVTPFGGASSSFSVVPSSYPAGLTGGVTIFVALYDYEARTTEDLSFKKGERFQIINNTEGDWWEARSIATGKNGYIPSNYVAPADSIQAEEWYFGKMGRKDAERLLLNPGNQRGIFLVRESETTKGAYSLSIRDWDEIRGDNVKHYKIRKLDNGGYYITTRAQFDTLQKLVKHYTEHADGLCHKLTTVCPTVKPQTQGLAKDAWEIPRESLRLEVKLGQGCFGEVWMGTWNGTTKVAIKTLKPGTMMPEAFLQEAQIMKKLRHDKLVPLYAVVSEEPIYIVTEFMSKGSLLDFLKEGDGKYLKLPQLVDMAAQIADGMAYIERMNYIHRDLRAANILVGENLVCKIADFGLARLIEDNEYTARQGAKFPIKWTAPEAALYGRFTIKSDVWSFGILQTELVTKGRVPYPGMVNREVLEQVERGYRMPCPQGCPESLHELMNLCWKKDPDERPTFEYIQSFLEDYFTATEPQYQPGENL
assayOverview: ADP-Glo kinase assay, inhibition rates of Yes phosphorylation activity (first and second screening)
Assay type: biochemical
conditionSet: first screening; mean of n = 4 wells; 10 μmol L−1 compound
# First screening IR (inhibition rate) annotations

molecule	First screening IR (inhibition rate) (%)
CCCN(CCC)S(=O)(=O)c1ccc(S(C)(=O)=O)cc1	14
Cc1nc2ccccc2c(=O)n1/N=C/c1c2ccccc2cc2ccccc12	2
Cc1ccc(-n2c(=O)/c(=C/c3ccc4c(c3)OCO4)s/c2=C(/C#N)C(=O)NCCN2CCOCC2)c(C)c1	-11
CC(O)C1CCN(C(=O)NCC2CC(C)N(Cc3ccccc3)C2)C1 (stereo not drawn)	-9
Cn1c(SCC(=O)N2c3ccccc3OCC2c2ccccc2)nnc1-c1ccncc1 (stereo not drawn)	-1
CNC1CCN(C(=O)c2ccc3c(c2)ncn3C(C)C)C1.Cl.Cl (stereo not drawn)	13

----------
targetEntity: human recombinant Yes [a.a. 2–543 (end)] (Homo sapiens)
Construct: human recombinant Yes [a.a; 2–543 (end)]; purchased BPS Bioscience 40488
assayOverview: ADP-Glo kinase assay, inhibition rates of Yes phosphorylation activity (first and second screening)
Assay type: biochemical
conditionSet: first screening; mean of n = 4 wells; 10 μmol L−1 compound
Procedure: All inhibitory assays of the phosphorylation activity of Yes were performed in accordance with the Promega Technical Manual for the ADP-Glo™ Kinase Assay (Fitchburg, WI, USA. Catalog number: V9102). The human recombinant Yes [a.a. […] The screening was conducted in three steps consisting of the first screening, the second screening, and the IC50 determination, as can be illustrated in Fig. 1b. First, we determined the inhibition rates of the 1,991 compounds. […]
valueType: First screening IR (inhibition rate) (%)

compound	targetEntity	quantitativeResult
Cc1nn(CCC#N)c2nc(-c3ccccc3)cc(C(F)(F)F)c12 [Compound Z55426833]	human recombinant Yes [a.a. 2–543 (end)] (Homo sapiens)	-11
O=C(Cc1coc(-c2ccccc2)n1)Nc1ccc2ccccc2n1 [Compound Z167063860]	human recombinant Yes [a.a. 2–543 (end)] (Homo sapiens)	-6
Cc1cccc(NCC2CCN(Cc3cccc(C(N)=O)c3)C2)n1 (stereo not shown) [Compound Z990551490]	human recombinant Yes [a.a. 2–543 (end)] (Homo sapiens)	2
O=C(c1ccc(Nc2nccc(C(F)(F)F)n2)cc1)N1CCCC1 [Compound Z319025642]	human recombinant Yes [a.a. 2–543 (end)] (Homo sapiens)	-36
CN(C)S(=O)(=O)c1ccc(S(N)(=O)=O)cc1 [Compound Z45415603]	human recombinant Yes [a.a. 2–543 (end)] (Homo sapiens)	11
COc1cccc(-c2cc(-c3ccccc3)c3ccccc3n2)c1.Cl [Compound Z48951025]	human recombinant Yes [a.a. 2–543 (end)] (Homo sapiens)	-6
Cc1nc(C)n(C2CCCN(C(=O)CCn3ccnc3)C2)n1 (stereo not shown) [Compound Z1139343408]	human recombinant Yes [a.a. 2–543 (end)] (Homo sapiens)	0

----------
targetEntity: human recombinant Yes [a.a. 2–543 (end)] (Homo sapiens, UniProt P07947)
Construct: human recombinant Yes [a.a; 2–543 (end)]; purchased BPS Bioscience 40488
assayOverview: ADP-Glo kinase assay, inhibition rates of Yes phosphorylation activity (first and second screening)
Assay type: biochemical
conditionSet: first screening; mean of n = 4 wells; 10 μmol L−1 compound
Description: All inhibitory assays of the phosphorylation activity of Yes were performed in accordance with the Promega Technical Manual for the ADP-Glo™ Kinase Assay (Fitchburg, WI, USA. Catalog number: V9102). The human recombinant Yes [a.a. […] The screening was conducted in three steps consisting of the first screening, the second screening, and the IC50 determination, as can be illustrated in Fig. 1b. First, we determined the inhibition rates of the 1,991 compounds. […]
Entries and their First screening IR (inhibition rate) values follow.
valueType: First screening IR (inhibition rate) (%)

compound	valueType	quantitativeResult
CC1CC(CNC(=O)c2ccc(O)cc2F)CN1Cc1ccccc1 (stereo not shown)	First screening IR (inhibition rate)	2
COc1ccc(Br)cc1/C=N/Nc1ncnc2nc[nH]c12	First screening IR (inhibition rate)	62
O=C(CN1CCN(C(=O)c2cc(-c3ccccc3)nc3c2cnn3Cc2ccncc2)CC1)NC1CC1	First screening IR (inhibition rate)	12
N#Cc1cccc(/C=C2/C(=O)Nc3ccccc32)c1	First screening IR (inhibition rate)	8
NC(=O)c1cc(-c2ccccc2)nc2c1cnn2Cc1ccc(Cl)cc1	First screening IR (inhibition rate)	1
CCN(C(=O)c1ccc2c(c1)CC(c1ccccc1)OC2=O)c1ncc[nH]1 (stereo not shown)	First screening IR (inhibition rate)	-8
COC(=O)c1ccc(F)c(S(=O)(=O)N(C)C2C3CCOC3C2(C)C)c1 (stereo not shown)	First screening IR (inhibition rate)	3
CN(C)S(=O)(=O)c1cc(S(=O)(=O)c2ccc(Cl)c(S(=O)(=O)N(C)C)c2)ccc1Cl	First screening IR (inhibition rate)	1
c1ccc(Cn2cccn2)c(CNc2cncc(-n3cccn3)n2)c1	First screening IR (inhibition rate)	41
CCOC(=O)c1sc2nc(CN3CCOCC3)nc(Nc3ccc(N4CCCCC4)nc3)c2c1C	First screening IR (inhibition rate)	37
CC(C)(C)c1nc(SCC(=O)c2ccc3c(c2)CCC3)n[nH]1	First screening IR (inhibition rate)	-7
Cc1cccc(NC(=O)CN2CCN(C(=O)CN3C(=O)Cn4c(cc5ccccc54)C3=O)CC2)c1C	First screening IR (inhibition rate)	-25
O=C(Nc1nc2c(s1)CN(Cc1ccccc1)CC2)c1csc(-c2ccsc2)n1	First screening IR (inhibition rate)	8
O=C(CCCNC(=O)c1ccc(-c2ccccc2F)o1)Nc1ccc(Cl)cc1	First screening IR (inhibition rate)	2
CCCN(C1CCS(=O)(=O)C1)S(=O)(=O)CCC (stereo not shown)	First screening IR (inhibition rate)	16
CN(C1CCS(=O)(=O)C1)S(=O)(=O)c1cc(Cl)cc(Cl)c1 (stereo not shown)	First screening IR (inhibition rate)	17
Clc1ccc(Oc2cccc(-c3nc4c5ccccc5c5ccccc5c4[nH]3)c2)cc1	First screening IR (inhibition rate)	2
CCn1ncc2c(C(=O)Nc3ccc(F)c([N+](=O)[O-])c3)cc(-c3cccs3)nc21	First screening IR (inhibition rate)	31
O=C(c1ccoc1)N1CCC(NCc2cn[nH]c2-c2ccc(F)cc2)CC1	First screening IR (inhibition rate)	36
Cc1ccccc1C1CCCN1c1ncnc2nc[nH]c12 (stereo not shown)	First screening IR (inhibition rate)	42
CC(C)(C)C(=O)NCc1ccc(C(=O)COC(=O)c2cc3c(s2)CCC3)s1	First screening IR (inhibition rate)	9
CC(SCc1nc(N)nc(N(C)C)n1)C(=O)Nc1ccc(F)cc1 (stereo not shown)	First screening IR (inhibition rate)	-3

----------
Measured First screening IR (inhibition rate), listed per entry for reference.
targetEntity: human recombinant Yes [a.a. 2–543 (end)] (Homo sapiens)
Construct: human recombinant Yes [a.a; 2–543 (end)]; purchased BPS Bioscience 40488
assayOverview: ADP-Glo kinase assay, inhibition rates of Yes phosphorylation activity (first and second screening)
Format: biochemical
conditionSet: first screening; mean of n = 4 wells; 10 μmol L−1 compound

molecule	First screening IR (inhibition rate)
O=C(CCc1cnn(-c2ccccc2)c1)Nc1n[nH]c(-c2ccccn2)n1 [Compound Z653343234]	-14%
O=C(CCCSc1nc2ccccc2[nH]1)Nc1ccc(-c2nc3ccccc3[nH]2)cc1 [Compound Z30270226]	17%
Cc1cc(Br)ccc1SCC(=O)OC/C(O)=C(\C#N)c1nc2ccccc2[nH]1 [Compound Z18738204]	43%

----------
targetEntity: human recombinant Yes [a.a. 2–543 (end)] (Homo sapiens, UniProt P07947)
Construct: human recombinant Yes [a.a; 2–543 (end)]; purchased BPS Bioscience 40488
assayOverview: ADP-Glo kinase assay, inhibition rates of Yes phosphorylation activity (first and second screening)
Assay type: biochemical
conditionSet: second screening, dissolved from fresh powder; n = 4; 10 μmol L−1 compound

molecule	unitString	Second screening IR (inhibition rate)
Oc1c(-c2nc3ccccc3c3ccccc23)sc2ncccc12 [Compound Z107727738]	%	24
CCOc1cc(/C=C2/CCCc3c2nc2ccccc2c3C(=O)O)ccc1OC [Compound Z46035916]	%	-8
Cc1c(/C=C2/C(=O)Nc3ccc(F)cc32)cnn1C [Compound Z1517268554]	%	16
Cc1ccn2c(CNc3cc(C(N)=O)cc(F)c3C)cnc2c1 [Compound Z1462541066]	%	-26
Cc1cccc(N=C2NN=C(c3ccc(CCNS(C)(=O)=O)s3)CS2)c1C [Compound Z232307154]	%	-3
O=C(NCCSCc1ccccc1)Nc1ccc(NC(=O)c2ccco2)cc1 [Compound Z412775020]	%	-16
COc1cc(/C=N/Nc2ncnc3sc(-c4ccccc4)cc23)cc(OC)c1OC [Compound Z49894862]	%	22
O=C1CCc2cc(OC(=O)c3cn(-c4ccccc4)nc3-c3cccs3)ccc2N1 [Compound Z764721614]	%	-5
Fc1ccc(-c2cc3ncnc(N/N=C/c4ccncc4)c3s2)cc1 [Compound Z50080378]	%	55
